- Tested on: NCI-H522 lung
- assay-procedure: NCI-60 one-dose screen, 48 h (100 = growth as untreated, 0 = no growth, -100 = all killed)
- conditions: 10 µM unless noted
About 83,000 compounds went through this panel and 20% of them were active in at least one assay; those are over-represented in the sample as a whole.
property-name: growth (%)
Answer in %, number only, no unit symbol.

{"molecule": "Cl[C@@H]1CCO[C@H](c2cc3ccccc3c3ccccc23)C1", "growth [%]": 82.6}
{"molecule": "O=c1c2ccccc2sc2c(N3CCCC3)nc3ccccc3c12", "growth [%]": 100}
{"molecule": "COC(=O)c1oc2c(C(=O)/C=C/c3ccc(OC)cc3)c(OCCN3CCOCC3)ccc2c1C", "growth [%]": -20}

Asked: Read the entry O=C1c2ccccc2OC=C(c2ccccc2)N1CCCCNc1ccc(F)cc1 and write its reported growth.
Given back: 69.5

Asked: Read the entry COc1ccc(/C=C/C(=O)/C=C(/C=C/c2ccc(OC)c(OC)c2OC)OB(F)F)c(OC)c1OC and write its reported growth.
Given back: 16.3

Asked: Read the entry O=[N+]([O-])c1ccc(NS(=O)(=O)c2cc(Cl)ccc2Cl)c2ccccc12 and write its reported growth.
Given back: 10.1

Asked: Read the entry CC(C)(C)OC(=O)NCc1cccc(N=C=S)c1 and write its reported growth.
Given back: 12.8

Asked: Read the entry COc1ccc(CNc2nc3ccccc3c3c(=O)c4ccccc4sc23)cc1OC and write its reported growth.
Given back: 77.4

Asked: Read the entry CS(=O)(=O)Nc1cccc(-c2ccc3ncnc(Nc4cncc(Cl)c4)c3c2)c1 and write its reported growth.
Given back: 28.1

Asked: Read the entry NC(=O)C1=C[C@H]2[C@H]3C=C[C@@]2(O)C(=O)O[C@@H]3O1 and write its reported growth.
Given back: 63.3

Asked: Read the entry O=c1[nH]ccc2nc(N3CCC(O)CC3)nc(Nc3cccc(C(F)(F)F)c3)c12 and write its reported growth.
Given back: 51.7

Asked: Read the entry OC(COc1ccccc1Cl)CN1CCN(c2ccc(Cl)cc2)CC1 (stereo not given) and write its reported growth.
Given back: 92.6

Asked: Read the entry CCNC(=O)Oc1ccc(/C(=C(/CC)Cc2ccccc2)c2ccc(OCCN3CCOCC3)cc2)cc1 and write its reported growth.
Given back: 56.4

Asked: Read the entry CN(C)CCCOc1c(Br)cc(/C=C/C(=O)N(C)CCc2cc(Br)c(OCCCN(C)C)c(Br)c2)cc1Br and write its reported growth.
Given back: 13.5

Asked: Read the entry Nc1nc(Cl)cc(NCc2ccc(CNc3cc(Cl)nc(N)n3)cc2)n1 and write its reported growth.
Given back: 49.8

Asked: Read the entry CC(=O)N1N=C2N(Cc3ccccc3)C(=O)c3c(sc4c3CCCC4)N2C1c1cn(-c2ccccc2)nc1-c1ccc(Cl)cc1 (stereo not given) and write its reported growth.
Given back: 101

Asked: Read the entry CC1(C)N=C(N)N=C(N)N1c1ccc(OCC(=O)Nc2ccccc2)c(Cl)c1 and write its reported growth.
Given back: -7.05

Asked: Read the entry Cc1ccc[n+](CC(=O)c2cccc3ccccc23)c1 and write its reported growth.
Given back: 101

---

The following compounds are shown together with reported growth values.
- System: UACC-257 melanoma
- assay-procedure: NCI-60 one-dose screen, 48 h (100 = growth as untreated, 0 = no growth, -100 = all killed)
- conditions: 10 µM unless noted
This is part of a sample that, as a whole, favours compounds with a hit. Of some 83,000 tested, about 20% had one in any assay.
Answer in %, number only, no unit symbol.

Asked: Read the entry COc1ccc(-c2nn(-c3ccc(NC(=O)c4cc(Cl)cc(Cl)c4)cc3)cc2-c2ccncc2)cc1Cl and write its reported growth.
Given back: 85
